Biological target: mutant AR (W741C) (Homo sapiens, UniProt P10275, W742C)
Construct: expressed in transfected cells; host or cells: Cos-7
Sequence (P10275 whole entry W742C): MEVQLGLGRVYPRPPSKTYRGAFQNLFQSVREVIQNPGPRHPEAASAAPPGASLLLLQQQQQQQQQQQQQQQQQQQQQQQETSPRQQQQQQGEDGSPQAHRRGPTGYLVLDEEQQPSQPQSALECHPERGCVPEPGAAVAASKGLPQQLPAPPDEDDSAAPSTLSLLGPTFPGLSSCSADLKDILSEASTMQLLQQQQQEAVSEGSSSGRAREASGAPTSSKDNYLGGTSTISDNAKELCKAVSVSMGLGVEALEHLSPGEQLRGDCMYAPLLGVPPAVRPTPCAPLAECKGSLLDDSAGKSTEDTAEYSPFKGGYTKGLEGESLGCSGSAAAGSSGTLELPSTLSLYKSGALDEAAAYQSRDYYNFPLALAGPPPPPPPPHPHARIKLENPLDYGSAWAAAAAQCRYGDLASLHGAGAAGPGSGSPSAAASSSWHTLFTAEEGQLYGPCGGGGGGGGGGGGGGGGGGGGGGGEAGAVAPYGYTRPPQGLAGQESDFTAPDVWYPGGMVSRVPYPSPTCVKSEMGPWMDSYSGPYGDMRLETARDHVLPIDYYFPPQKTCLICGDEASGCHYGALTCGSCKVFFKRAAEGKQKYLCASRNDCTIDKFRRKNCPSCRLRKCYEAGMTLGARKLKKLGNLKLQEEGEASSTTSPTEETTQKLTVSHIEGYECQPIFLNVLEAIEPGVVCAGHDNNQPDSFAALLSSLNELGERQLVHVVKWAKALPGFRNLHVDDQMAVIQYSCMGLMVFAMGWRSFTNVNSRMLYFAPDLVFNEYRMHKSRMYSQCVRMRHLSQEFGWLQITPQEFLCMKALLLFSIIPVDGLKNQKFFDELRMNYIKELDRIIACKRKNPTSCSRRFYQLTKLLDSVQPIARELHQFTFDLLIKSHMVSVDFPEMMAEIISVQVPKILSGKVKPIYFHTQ
Test: AR transcription inhibition test (luciferase reporter in Cos-7 cells)
Format: cell-based
Details: compound 1 μM; DHT 0.1 μM; Cos-7 cells cotransfected with mutant AR (W741C) and androgen responsive luciferase reporter; 24 hr; relative to control (0.1 μM DHT); read-out: AR transcription inhibitory rate (%)
Measured inhibition at 1 µM, listed per entry for reference.
endpoint: inhibition at 1 µM (%)

[[record]]
molecule = "Cc1nn(-c2ccc(C#N)c(Cl)c2)c(C)c1Cc1ccc(C(=O)N2CC(O)C2)cc1"
target_or_system = "mutant AR (W741C) (Homo sapiens, UniProt P10275, W742C)"
endpoint = "inhibition at 1 µM"
endpoint_result = 23

[[record]]
molecule = "Cc1nn(-c2ccc(C#N)c(Cl)c2)c(C)c1Cc1ccc(C(=O)N2CCC(O)CC2)cc1"
target_or_system = "mutant AR (W741C) (Homo sapiens, UniProt P10275, W742C)"
endpoint = "inhibition at 1 µM"
endpoint_result = 23

[[record]]
molecule = "Cc1nn(-c2ccc(C#N)c(Cl)c2)c(C)c1Cc1ccc(C(=O)NCC(O)CO)cc1 (racemic)"
target_or_system = "mutant AR (W741C) (Homo sapiens, UniProt P10275, W742C)"
endpoint = "inhibition at 1 µM"
endpoint_result = 38

[[record]]
molecule = "Cc1nn(-c2ccc(C#N)c(Cl)c2)c(C)c1Cc1ccc(C(=O)N(C)CCO)cc1"
target_or_system = "mutant AR (W741C) (Homo sapiens, UniProt P10275, W742C)"
endpoint = "inhibition at 1 µM"
endpoint_result = 39

[[record]]
molecule = "Cc1nn(-c2ccc(C#N)c(Cl)c2)c(C)c1Cc1ccc(-c2nnc(C(N)=O)o2)cc1"
target_or_system = "mutant AR (W741C) (Homo sapiens, UniProt P10275, W742C)"
endpoint = "inhibition at 1 µM"
endpoint_result = 93

[[record]]
molecule = "Cc1nn(-c2ccc(C#N)c(Cl)c2)c(C)c1Oc1ccc(C(=O)N2CCS(=O)(=O)CC2)cc1"
target_or_system = "mutant AR (W741C) (Homo sapiens, UniProt P10275, W742C)"
endpoint = "inhibition at 1 µM"
endpoint_result = 24

[[record]]
molecule = "Cc1nn(-c2ccc(C#N)c(Cl)c2)c(C)c1Cc1ccc(C(=O)N2CC[C@H](O)C2)cc1"
target_or_system = "mutant AR (W741C) (Homo sapiens, UniProt P10275, W742C)"
endpoint = "inhibition at 1 µM"
endpoint_result = 22


The measurements presented in this section are drawn from patent US20090270361A1.
